Quick reference for EC50 among some substances
- test_system: hGLP-1R (Homo sapiens, UniProt P43220)
- Sequence (P43220 24-463): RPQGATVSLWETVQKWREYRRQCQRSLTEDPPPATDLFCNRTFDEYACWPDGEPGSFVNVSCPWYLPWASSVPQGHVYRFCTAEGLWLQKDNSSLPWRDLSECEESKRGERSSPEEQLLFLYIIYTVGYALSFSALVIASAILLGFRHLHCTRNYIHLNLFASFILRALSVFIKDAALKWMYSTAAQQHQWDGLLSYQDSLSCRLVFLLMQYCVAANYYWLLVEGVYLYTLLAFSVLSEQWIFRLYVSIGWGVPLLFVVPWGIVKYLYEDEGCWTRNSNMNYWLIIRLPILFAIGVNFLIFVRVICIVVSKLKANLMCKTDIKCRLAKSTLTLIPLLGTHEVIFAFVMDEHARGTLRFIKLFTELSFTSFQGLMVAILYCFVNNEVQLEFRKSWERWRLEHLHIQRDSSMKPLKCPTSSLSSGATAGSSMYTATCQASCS
- protocol_text: Functional cAMP activity in the presence of 1% HSA
- Format: cell-based
- experimental_conditions: read-out: cAMP Rel EC50, hGLP-1R
Starred links: 1 amine or outer side, 2 acyl side, 3 side chain; linkers in the order of their positions; H or OH if unused. Non-standard residues stand in square brackets, D forms with d. Groups on a side chain read outwards from the residue. No end group written: not given here. *: point of attachment. C18 diacid = O=C(O)CCCCCCCCCCCCCCCCC(=O)*; αMePhe(2-F) = C[C@](N)(Cc1ccccc1F)C(=O)O; γGlu = O=C(O)[C@H](CCC(=O)[*:2])N[*:1]; αMe4Pal = C[C@](N)(Cc1ccncc1)C(=O)O; αMeY = C[C@](N)(Cc1ccc(O)cc1)C(=O)O; 4Pal = N[C@@H](Cc1ccncc1)C(=O)O; αMeL = CC(C)C[C@](C)(N)C(=O)O; αMeS = C[C@](N)(CO)C(=O)O; Orn = NCCC[C@H](N)C(=O)O; AEEA = NCCOCCOCC(=O)O; Aib = CC(C)(N)C(=O)O
Just the number in nM, nothing appended.

substance	EC50, nM
H-Y[Aib]QGT[αMePhe(2-F)]TSD[4Pal][αMeS]I[αMeL]LD[Orn]K([γGlu-γGlu-C18 diacid])AQ[αMe4Pal]EFI[dE][αMeY]LIEGGPSSGEPPPSGE-NH2 [Example 1151]	40
H-Y[Aib]QGT[αMePhe(2-F)]TSD[4Pal][αMeS]I[αMeL]LD[Orn]K([AEEA-γGlu-C18 diacid])AQ[Aib][Orn]FI[dE][αMeY]LIEGGPSSGEPPPEGE-NH2 [Example 698]	20.6
H-Y[Aib]QGTFTSDFS[Orn][αMeL]LDKK([AEEA-γGlu-C18 diacid])AQ[Aib]AFIEWLLEGGHSSGAPPPSGH-NH2 [Example 269]	428
H-Y[Aib]QGT[αMePhe(2-F)]TSD[4Pal]SI[αMeL]LD[Orn]K([AEEA-γGlu-C18 diacid])AQ[αMe4Pal][Orn]FI[dE][αMeY]LIEGGPSSGDPPPETE-NH2 [Example 730]	33

Turning now to a further substance:
Problem: Return EC50 measured with hGLP-1R (Homo sapiens, UniProt P43220) given this substance: Y[Aib]QGTFTSD[4Pal]SQ[αMeL]LDKK([Glu-Glu-γGlu-C18 diacid])AQ[αMe4Pal]AFIEYLIE[Aib]GPSSGAPPPSGS-NH2 [Example 895]
Result: 599
